# Test system: HCT116
# TEST METHOD NOTES: efficacy (fitted maximal change in viability relative to DMSO control); higher = less cytotoxic (negative = loss of viability)
# SETUP CONDITIONS: 48 h
Decision: efficacy >= -70% yields criterion met, all other cases yield criterion not met.

                                   molecule  measured_on              label
0            C[C@@H]\1/N=C(/N)NC(=N1)\N(C)C       HCT116      criterion met
1  CC1(C)CC[C@@]2(CC[C@]3(C)[C@@H]([C@@H]2C1)C(=O)\C=C\4[C@@]3(C)CC[C@H]5C(C)(C)C(=O)\C(=C/[C@]45C)C#N)NC(=O)C(C)(F)F       HCT116  criterion not met
2  COc1ccc(Oc2cc(NCCC(F)(F)F)c3ncc(-c4ccc(C(=O)NC5CC5)c(C)c4)n3n2)c(F)c1F       HCT116      criterion met

Please indicate if the recorded efficacy for COc1cc(C)c(Sc2cnc(NC(=O)c3ccc(CNC(C)C(C)(C)C)cc3)s2)cc1C(=O)N1CCN(C(C)=O)CC1 (configuration not stated) meets or exceeds -70%.
criterion not met

Is the recorded value of efficacy equal to or greater than -70% for this molecule? `CCN1CCN(C(=O)Cc2ccc(Nc3ncc(F)c(Nc4ccc(C(=O)Nc5ccccc5Cl)cc4)n3)cc2)CC1`
criterion not met

Check if efficacy >= -70% (inclusive). Item: CC1COC2(CCN(CC2)C/3=N/C(=O)C4=CC(=CC(=C4S3)[N+]([O-])=O)C(F)(F)F)O1 (configuration not stated)
criterion met

Does the molecule `C=CC(=O)Nc1ccc(F)c(-c2ncnc3[nH]cc(C(=O)OCC)c23)c1` have recorded efficacy that is -70% or more?
criterion met

---

# System: HCT116
# TEST METHOD NOTES: efficacy (fitted maximal change in viability relative to DMSO control); higher = less cytotoxic (negative = loss of viability)
# SETUP CONDITIONS: 48 h
Where a name gives a salt, the structure may show the parent alone.
METRIC NAME: efficacy (%)
Form entry: value (%) — number only.

>>> df
                                   molecule  measured_result
0  C1CCC(C(CC2CCCCN2)C2CCCCC2)CC1 (stereo not drawn)            -92.2
1  CCN(CC)CCOc1ccc(Cc2ccccc2)cc1 [Tesmilifene hydrochloride]              -27
2  C[C@@H](C(=O)Nc1ccc(Cl)cc1)[C@H]1CC[C@@H](c2ccnc3ccc(F)cc32)CC1            -47.3
3  OC[C@H]1O[C@H]([C@H](O)[C@@H]1O)N2/C=C\C=N/C2=O            -11.7
4  O=C(O)C1(Cc2cccc(Nc3nccs3)n2)CCC(Oc2cccc(Cl)c2F)CC1 (stereo not drawn)            -34.3

Form entry - test system: HCT116; read-out: efficacy; molecule: `CC(C)(C)Sc1c(CC(C)(C)C(=O)O)n(Cc2ccc(Cl)cc2)c2ccc(OCc3ccc4ccccc4n3)cc12`
-88.4

Param readout = efficacy; param system = HCT116; param query = `c1cc(-c2sc(-c3ccncc3)c(-c3ccncc3)c2-c2ccncc2)ccn1` ; response: value;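 further: Luminescence-based viability readout, five doses per compound, normalized against on-plate DMSO and empty-well controls, followed by dose-response curve fitting for every drug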
-13.8

So what efficacy did `C/C(=N\NC(=O)c1cccc([S+](=O)([O-])N2CCOCC2)c1)c1cc(Cl)ccc1O` get with HCT116?
-69.5
